ASSAY_PROTOCOL: Kinetic solubility by nephelometry
Format: physicochemical
TEST_CONTEXT: pH 2.0 (0.01 M HCl)

COMPOUND: CC(C)(C)CC(=O)NC(C(=O)NO)c1ccc(-c2cc(F)c(F)c(F)c2)cc1 (stereo not shown)
solubility kinetic: 12.5 to 25 µg/mL

---

ASSAY_PROTOCOL: Kinetic solubility by nephelometry
Assay type: physicochemical
TEST_CONTEXT: pH 6.5 phosphate buffer
PROPERTY_LABEL: solubility kinetic

COMPOUND: CC(C)(C)CC(=O)NC(C(=O)NO)c1ccc(-c2cc(F)c(F)c(F)c2)cc1 (stereo not shown) [MMV1557817]
PROPERTY_LABEL: solubility kinetic
ENDPOINT_VALUE: 0.0125 to 0.025 mg/mL

---

Test system: K1
ASSAY_PROTOCOL: microbe, parasite or virus in culture
Format: cell-based, P. falciparum
TEST_CONTEXT: Plasmodium falciparum, read-out: EC50 nM (mean)
PROPERTY_LABEL: EC50 (nM)

MOLECULE: CC(C)(C)CC(=O)NC(C(=O)NO)c1ccc(-c2cc(F)c(F)c(F)c2)cc1 (stereo not shown)
PROPERTY_LABEL: EC50
ENDPOINT_VALUE: 26

---

ASSAY_PROTOCOL: Plasma protein binding by ultracentrifugation
Format: in vitro ADME, human
TEST_CONTEXT: plasma (10% plasma diluted with PBS), pH 7.4; human plasma; read-out: Plasma protein binding (converted)
PROPERTY_LABEL: fraction unbound at 4.2 h

MOLECULE: CC(C)(C)CC(=O)NC(C(=O)NO)c1ccc(-c2cc(F)c(F)c(F)c2)cc1 (stereo not shown) [MMV1557817]
ENDPOINT_VALUE: 0.012

---

TARGET: PfA-M17 (Plasmodium falciparum)
Sequence (Q8IL11 84-605): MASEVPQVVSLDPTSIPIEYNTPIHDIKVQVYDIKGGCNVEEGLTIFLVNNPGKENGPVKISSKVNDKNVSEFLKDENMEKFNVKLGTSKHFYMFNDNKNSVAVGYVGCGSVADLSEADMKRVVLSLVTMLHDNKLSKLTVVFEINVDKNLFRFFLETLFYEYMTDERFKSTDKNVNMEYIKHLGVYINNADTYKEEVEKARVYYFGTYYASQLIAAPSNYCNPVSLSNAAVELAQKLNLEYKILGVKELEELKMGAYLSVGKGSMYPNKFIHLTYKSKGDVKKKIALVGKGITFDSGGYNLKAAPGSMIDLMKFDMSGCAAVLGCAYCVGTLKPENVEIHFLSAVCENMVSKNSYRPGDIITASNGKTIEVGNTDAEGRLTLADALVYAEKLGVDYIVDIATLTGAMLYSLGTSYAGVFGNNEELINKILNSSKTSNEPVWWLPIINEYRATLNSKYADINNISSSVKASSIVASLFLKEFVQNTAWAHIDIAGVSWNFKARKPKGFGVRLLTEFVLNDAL
ASSAY_PROTOCOL: Recombinant aminopeptidase fluorescence assay (H-Leu-NHMec)
TEST_CONTEXT: Pf M17, Morrison equation; read-out: Ki^(app) ± SEM
pKi: −log10 of the molar value.

MOLECULE: CC(C)(C)CC(=O)NC(C(=O)NO)c1ccc(-c2cc(F)c(F)c(F)c2)cc1 (stereo not shown)
pKi: 6.95

---

ASSAY_PROTOCOL: In vivo exposure after single oral dosing
TEST_CONTEXT: male, Swiss outbred, mouse, plasma, 50 mg/kg
PROPERTY_LABEL: Tmax

COMPOUND: CC(C)(C)CC(=O)NC(C(=O)NO)c1ccc(-c2cc(F)c(F)c(F)c2)cc1 (stereo not shown)
ENDPOINT_VALUE: 30 min

---

TARGET: Pv-M17 (Plasmodium vivax, UniProt A5K3U9)
Sequence (A5K3U9 74-621): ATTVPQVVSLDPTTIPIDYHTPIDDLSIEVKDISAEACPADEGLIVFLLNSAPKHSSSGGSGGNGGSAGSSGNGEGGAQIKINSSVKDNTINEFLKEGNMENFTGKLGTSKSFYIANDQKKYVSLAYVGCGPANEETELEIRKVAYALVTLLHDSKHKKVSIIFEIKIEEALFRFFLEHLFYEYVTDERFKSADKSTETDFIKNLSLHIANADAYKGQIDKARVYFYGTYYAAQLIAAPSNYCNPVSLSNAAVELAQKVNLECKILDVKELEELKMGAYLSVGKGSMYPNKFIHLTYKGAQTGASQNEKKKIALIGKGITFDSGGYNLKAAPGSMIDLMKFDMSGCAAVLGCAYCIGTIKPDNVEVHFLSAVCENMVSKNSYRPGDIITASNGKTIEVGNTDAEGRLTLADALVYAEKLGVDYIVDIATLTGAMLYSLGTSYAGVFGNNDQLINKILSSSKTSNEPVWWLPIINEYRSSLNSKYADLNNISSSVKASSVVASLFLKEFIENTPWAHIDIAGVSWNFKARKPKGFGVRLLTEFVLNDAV
ASSAY_PROTOCOL: Recombinant aminopeptidase fluorescence assay (H-Leu-NHMec)
TEST_CONTEXT: Pv M17, Morrison equation; read-out: Ki^(app) ± SEM
pKi: −log10 of the molar value.

COMPOUND: CC(C)(C)CC(=O)NC(C(=O)NO)c1ccc(-c2cc(F)c(F)c(F)c2)cc1 (stereo not shown)
pKi: 6.68

---

ASSAY_PROTOCOL: Metabolic stability in liver microsomes
Type: in vitro ADME
TEST_CONTEXT: human liver microsomes; read-out: in vitro microsomal CLint

COMPOUND: CC(C)(C)CC(=O)NC(C(=O)NO)c1ccc(-c2cc(F)c(F)c(F)c2)cc1 (stereo not shown) [MMV1557817]
microsomal CLint at 1 µM, µL/min/mg: 11
